B1: tRNA (parent)
chain: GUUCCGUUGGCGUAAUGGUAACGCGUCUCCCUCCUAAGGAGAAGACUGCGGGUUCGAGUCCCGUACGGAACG

Variants of: B1
Test: yeast fitness relative to wild type (ratio to wild type); higher = fitter; tRNA-Arg(CCU), competitive growth, 37 C, YPD
This sample holds only a part of the variants without activity.
yeast fitness overview
readoutLabel: yeast fitness

1) A21U A37U : 0.672
2) G6A G48C : 0.884
3) U8G A69U : 0.575
4) U3C A21U G38C : 0.668
5) C4A G38C : 0.652
6) U3A G48A A57U : 0.591
7) C5U C11A C22G C55G C60G : 0.997
8) G50C G56C : 0.614
9) U8C G63C : 0.778
10) C5A U13A U35A U59C : 0.661
11) G25A C31G A45U C61U : 0.727
12) U7C U26A : 0.777
13) A15G G39A A40G A57C : 0.534
14) G39C G52A : 0.76
15) A20U U35C A36G C55G : 0.578
16) C4G G9A : 0.916
17) A20C G44A G56A : 0.544
18) C24U G63C : 0.771
19) U32C A36C : 0.756
